The molecules listed here are annotated with their growth.
# Tested on: CCRF-CEM leukemia
# test-protocol: NCI-60 one-dose screen, 48 h (100 = growth as untreated, 0 = no growth, -100 = all killed)
# experimental-setup: 10 µM unless noted
About 83,000 compounds went through this panel and 20% of them were active in at least one assay; those are over-represented in the sample as a whole.
// return numeric value only (unit: %, not printed)

Please review the entries below; each comes with its answer.
{"columns": ["molecule", "units-of-measure", "growth"],
 "data": [
  ["COc1ccc(C(=O)COc2ccc(/C=C3\\COc4ccc(OC)cc4C3=O)cc2)cc1", "%", 7.46],
  ["CSc1nc2c(c(=O)[nH]1)C1(C(=O)Nc3ccccc31)c1c(nc(SC)[nH]c1=O)N2", "%", 109],
  ["COc1cccc(/C=C2\\SC(=Nc3ccc(NC(C)=O)cc3)NC2=O)c1OC", "%", 97.1],
  ["Nc1n[nH]c2ccc([C@@H]3Nc4ccc5[nH]ncc5c4[C@H]4C5C=CC(C5)[C@@H]34)cc12 (stereo not given in full)", "%", 19.6]
]}

// moving on: another record for growth
Input line: // lookup growth for "COc1ccc(-c2cc(=O)c3c(OC)c4ccoc4cc3o2)cc1"
Output line: 109
